Recorded AUC(0-inf), one value per entry.
# method-description: Serum pharmacokinetics after oral administration in C57BL/6J mice
# Format: in vivo
# study-conditions: male, mouse, oral 50 mg/kg in olive oil, to be considered with caution (high extrapolation)
Kindly provide the numeric value in ng·h/mL only, without the unit symbol.

input-smiles	observed-measurement
CC/C=C\C/C=C\C/C=C\C/C=C\C/C=C\C/C=C\CCC(=O)Oc1ccc(-c2cc(=O)c3c(O)cc(O)cc3o2)cc1	471

Here's the next entry for you.
Kindly note the recorded AUC(0-inf) for O=c1cc(-c2ccc(O)cc2)oc2cc(O)cc(O)c12 , which is 58.8

* * *

Recorded Tmax, one value per entry.
# method-description: Serum pharmacokinetics after oral administration in C57BL/6J mice
# Assay type: in vivo
# study-conditions: male, mouse, oral 50 mg/kg in olive oil
# Description: For the detection of the conjugate, the EVOQ Elite ER TQ (Bruker) mass spectrometer was operated in negative ionization electrospray mode (ESI) under multiple reaction monitoring (MRM). […] Optimum ESI conditions were determined as follows: spray voltage, 4500 V; heated probe gas flow, 50 units; heated probe temperature 350℃; cone gas flow, 20 units; cone temperature, 200 °C; nebulizer gas flow, 40 units. […]
Kindly provide the numeric value in h only, without the unit symbol.

input-smiles	Tmax / h
CC/C=C\C/C=C\C/C=C\C/C=C\C/C=C\C/C=C\CCC(=O)Oc1ccc(-c2cc(=O)c3c(O)cc(O)cc3o2)cc1	2

Here's the next entry for you.
Kindly note the recorded Tmax for O=c1cc(-c2ccc(O)cc2)oc2cc(O)cc(O)c12 , which is 2
